# SYSTEM_UNDER_TEST: Procathepsin L (Homo sapiens)
# ASSAY_OVERVIEW: Inhibition of human cathepsin L assessed as first order rate constant using Cbz-Phe-Arg-AMC as substrate after 10 mins by fluorescence assay
# Sequence (P07711 114-333 limits assumed): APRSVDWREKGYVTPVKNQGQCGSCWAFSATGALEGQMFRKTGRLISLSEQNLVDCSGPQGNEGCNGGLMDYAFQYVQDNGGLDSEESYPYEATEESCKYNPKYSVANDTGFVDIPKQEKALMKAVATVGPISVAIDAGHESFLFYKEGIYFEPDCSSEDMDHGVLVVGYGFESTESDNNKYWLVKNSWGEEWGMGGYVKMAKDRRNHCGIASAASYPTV
// NB: equality with 0.002 min⁻¹ counts as 0.0; only Kinact strictly below is 1.0

Solved cases (3 shown):
1. COC(=O)/C=C/[C@H](CCc1ccccc1)NC(=O)[C@H](CC(C)C)NC(=O)OCc1ccc([N+](=O)[O-])cc1 = 1.0
2. N#C/C=C/[C@H](CCc1ccccc1)NC(=O)[C@H](Cc1ccccc1)NC(=O)OCc1ccccc1 = 0.0
3. CC(C)C[C@H](NC(=O)OCc1ccc([N+](=O)[O-])cc1)C(=O)N[C@H](/C=C/S(=O)(=O)c1ccccc1)CCc1ccccc1 = 0.0

### Prompt Criterion: Kinact strictly below 0.002 min⁻¹. Is it met by "COC(=O)/C=C/[C@H](CCc1ccccc1)NC(=O)[C@H](CC(C)C)NC(=O)OCc1ccccc1" ?
### Response 0.0

### Prompt Criterion: Kinact strictly below 0.002 min⁻¹. Is it met by "CC(C)C[C@H](NC(=O)OCc1ccccc1)C(=O)N[C@H](/C=C/S(=O)(=O)c1ccccc1)CCc1ccccc1" ?
### Response 1.0

### Prompt Criterion: Kinact strictly below 0.002 min⁻¹. Is it met by "CC(=O)/C=C/[C@H](CCc1ccccc1)NC(=O)[C@H](CC(C)C)NC(=O)OCc1ccccc1" ?
### Response 1.0

* * *

# SYSTEM_UNDER_TEST: Rhodesain (Trypanosoma brucei rhodesiense)
# Sequence (Q95PM0 whole entry): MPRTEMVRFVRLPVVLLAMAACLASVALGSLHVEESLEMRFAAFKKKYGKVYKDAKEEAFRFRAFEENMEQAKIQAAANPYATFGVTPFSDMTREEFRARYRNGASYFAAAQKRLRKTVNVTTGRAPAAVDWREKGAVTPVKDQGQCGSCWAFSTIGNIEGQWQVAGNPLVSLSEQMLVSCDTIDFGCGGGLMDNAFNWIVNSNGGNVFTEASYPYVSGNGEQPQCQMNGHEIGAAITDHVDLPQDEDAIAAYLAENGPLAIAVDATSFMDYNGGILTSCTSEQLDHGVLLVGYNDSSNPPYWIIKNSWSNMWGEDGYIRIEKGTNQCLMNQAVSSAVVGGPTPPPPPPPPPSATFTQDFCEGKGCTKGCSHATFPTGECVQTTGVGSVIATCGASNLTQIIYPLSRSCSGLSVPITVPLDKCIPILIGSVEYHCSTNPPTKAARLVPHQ
# ASSAY_OVERVIEW: Inhibition of recombinant Trypanosoma brucei rhodesiense rhodesain expressed in Pichia pastoris using Cbz-Phe-Arg-AMC as substrate after 30 min by fluorescence assay
ASSAY_METRIC: pKi
Give bare numbers, as −log10 of the molar value.

1) CC(=O)/C=C/[C@H](CCc1ccccc1)NC(=O)[C@H](Cc1ccccc1)NC(=O)OCc1ccccc1 = 10.42
2) CC(=O)/C=C/[C@H](CCc1ccccc1)NC(=O)[C@H](Cc1ccccc1)NC(=O)OCc1ccc([N+](=O)[O-])cc1 = 10.13
3) CC(C)C[C@H](NC(=O)OCc1ccccc1)C(=O)N[C@H](/C=C/C#N)CCc1ccccc1 = 7.28
4) N#C/C=C/[C@H](CCc1ccccc1)NC(=O)[C@H](Cc1ccccc1)NC(=O)OCc1ccccc1 = 7.34
5) CC(C)C[C@H](NC(=O)OCc1ccccc1)C(=O)N[C@H](/C=C/S(=O)(=O)c1ccccc1)CCc1ccccc1 = 8.04
6) O=C(N[C@@H](Cc1ccccc1)C(=O)N[C@H](/C=C/S(=O)(=O)c1ccccc1)CCc1ccccc1)OCc1ccccc1 = 8.30

Hi there! I need pKi for each item below, if you can.
1. N#C/C=C/[C@H](CCc1ccccc1)NC(=O)[C@H](Cc1ccccc1)NC(=O)OCc1ccc([N+](=O)[O-])cc1
2. O=C(N[C@@H](Cc1ccccc1)C(=O)N[C@H](/C=C/S(=O)(=O)c1ccccc1)CCc1ccccc1)OCc1ccc([N+](=O)[O-])cc1

### Response
[5.76, 8.14]

* * *

# SYSTEM_UNDER_TEST: UniProtKB P07711
// NB: equality with 30 nM counts as f; only Ki strictly below is t

Solved cases (6 shown):
1. O=C(N[C@@H](Cc1ccccc1)C(=O)N[C@H](/C=C/S(=O)(=O)c1ccccc1)CCc1ccccc1)OCc1ccccc1 = f
2. CC(=O)/C=C/[C@H](CCc1ccccc1)NC(=O)[C@H](CC(C)C)NC(=O)OCc1ccc([N+](=O)[O-])cc1 = t
3. N#C/C=C/[C@H](CCc1ccccc1)NC(=O)[C@H](Cc1ccccc1)NC(=O)OCc1ccccc1 = f
4. CC(=O)/C=C/[C@H](CCc1ccccc1)NC(=O)[C@H](CC(C)C)NC(=O)OCc1ccccc1 = f
5. COC(=O)/C=C/[C@H](CCc1ccccc1)NC(=O)[C@H](CC(C)C)NC(=O)OCc1ccc([N+](=O)[O-])cc1 = f
6. COC(=O)/C=C/[C@H](CCc1ccccc1)NC(=O)[C@H](CC(C)C)NC(=O)OCc1ccccc1 = f

As a next step, examine the compound that follows.
### Prompt Criterion: Ki strictly below 30 nM. Is it met by "COC(=O)/C=C/[C@H](CCc1ccccc1)NC(=O)[C@H](Cc1ccccc1)NC(=O)OCc1ccc([N+](=O)[O-])cc1" ?
### Response t

* * *

# Test system: Trypanosoma brucei brucei
# ASSAY_OVERVIEW: Antiparasitic activity against bloodstream form of Trypanosoma brucei brucei 449 after 48 hrs by ATPlite assay
# Format: functional
# ASSAY_SETUP: Trypanosoma brucei, 449, 48 h
Kindly supply the reported EC50 values for the records listed here.
Answers are plain numbers, in µM.

In the examples that follow, each entry is paired with its recorded EC50.
1. COC(=O)/C=C/[C@H](CCc1ccccc1)NC(=O)[C@H](CC(C)C)NC(=O)OCc1ccccc1 = 5.02
2. CC(=O)/C=C/[C@H](CCc1ccccc1)NC(=O)[C@H](Cc1ccccc1)NC(=O)OCc1ccc([N+](=O)[O-])cc1 = 4.98
3. N=C(NCCCCCCNC(=N)NC(=N)Nc1ccc(Cl)cc1)NC(=N)Nc1ccc(Cl)cc1 = 0.53
4. O=C(N[C@@H](Cc1ccccc1)C(=O)N[C@H](/C=C/S(=O)(=O)c1ccccc1)CCc1ccccc1)OCc1ccc([N+](=O)[O-])cc1 = 4.07

Hi there! I need EC50 for each item below, if you can.
1. CC(=O)/C=C/[C@H](CCc1ccccc1)NC(=O)[C@H](CC(C)C)NC(=O)OCc1ccc([N+](=O)[O-])cc1
2. O=C(N[C@@H](Cc1ccccc1)C(=O)N[C@H](/C=C/S(=O)(=O)c1ccccc1)CCc1ccccc1)OCc1ccccc1
3. CC(C)C[C@H](NC(=O)OCc1ccccc1)C(=O)N[C@H](/C=C/S(=O)(=O)c1ccccc1)CCc1ccccc1
4. CC(=O)/C=C/[C@H](CCc1ccccc1)NC(=O)[C@H](CC(C)C)NC(=O)OCc1ccccc1
5. COC(=O)/C=C/[C@H](CCc1ccccc1)NC(=O)[C@H](Cc1ccccc1)NC(=O)OCc1ccccc1

### Response
[2.48, 18.5, 2.62, 3.2, 8.28]

### Prompt Please supply the value of reported EC50 for the item "CC(=O)/C=C/[C@H](CCc1ccccc1)NC(=O)[C@H](Cc1ccccc1)NC(=O)OCc1ccccc1"
### Response 2.97

* * *

# SYSTEM_UNDER_TEST: Falcipain 2 (Plasmodium falciparum)
# Sequence (Q9N6S8 whole entry): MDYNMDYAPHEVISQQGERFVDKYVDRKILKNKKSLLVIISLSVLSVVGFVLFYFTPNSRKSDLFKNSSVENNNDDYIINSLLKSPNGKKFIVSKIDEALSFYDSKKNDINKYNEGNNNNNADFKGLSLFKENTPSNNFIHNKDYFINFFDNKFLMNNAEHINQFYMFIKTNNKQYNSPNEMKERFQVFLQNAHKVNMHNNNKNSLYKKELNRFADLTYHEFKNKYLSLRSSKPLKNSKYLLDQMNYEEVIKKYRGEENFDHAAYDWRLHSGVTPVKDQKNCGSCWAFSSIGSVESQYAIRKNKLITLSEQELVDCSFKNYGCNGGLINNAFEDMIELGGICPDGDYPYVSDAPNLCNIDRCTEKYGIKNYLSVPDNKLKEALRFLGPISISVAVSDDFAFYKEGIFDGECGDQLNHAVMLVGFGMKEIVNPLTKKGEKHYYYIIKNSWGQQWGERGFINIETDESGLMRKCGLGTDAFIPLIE
# ASSAY_OVERVIEW: Inhibition of recombinant Plasmodium falciparum falcipain-2 expressed in Escherichia coli M15(pREP4) using Cbz-Phe-Arg-AMC as substrate by fluorescence assay
ASSAY_METRIC: IC50

In the examples that follow, each entry is paired with its recorded IC50.
1) COC(=O)/C=C/[C@H](CCc1ccccc1)NC(=O)[C@H](Cc1ccccc1)NC(=O)OCc1ccc([N+](=O)[O-])cc1 = > 50 µM
2) CC(C)C[C@H](NC(=O)OCc1ccccc1)C(=O)N[C@H](/C=C/C#N)CCc1ccccc1 = > 50 µM
3) N#C/C=C/[C@H](CCc1ccccc1)NC(=O)[C@H](Cc1ccccc1)NC(=O)OCc1ccccc1 = > 50 µM
4) CC(=O)/C=C/[C@H](CCc1ccccc1)NC(=O)[C@H](Cc1ccccc1)NC(=O)OCc1ccc([N+](=O)[O-])cc1 = 0.78 µM

Hi there! I need IC50 for each item below, if you can.
1. CC(C)C[C@H](NC(=O)OCc1ccc([N+](=O)[O-])cc1)C(=O)N[C@H](/C=C/C#N)CCc1ccccc1
2. CC(=O)/C=C/[C@H](CCc1ccccc1)NC(=O)[C@H](Cc1ccccc1)NC(=O)OCc1ccccc1
3. CC(=O)/C=C/[C@H](CCc1ccccc1)NC(=O)[C@H](CC(C)C)NC(=O)OCc1ccc([N+](=O)[O-])cc1
4. N#C/C=C/[C@H](CCc1ccccc1)NC(=O)[C@H](Cc1ccccc1)NC(=O)OCc1ccc([N+](=O)[O-])cc1

### Response
["> 50 µM", "3.01 µM", "0.11 µM", "> 50 µM"]

* * *

# SYSTEM_UNDER_TEST: UniProt Q95PM0
# ASSAY_OVERVIEW: Inhibition of recombinant Trypanosoma brucei rhodesiense rhodesain expressed in Pichia pastoris assessed as first order rate constant using Cbz-Phe-Arg-AMC as substrate after 30 mins by fluorescence assay
ASSAY_METRIC: Kinact

In the examples that follow, each entry is paired with its recorded Kinact.
1) COC(=O)/C=C/[C@H](CCc1ccccc1)NC(=O)[C@H](CC(C)C)NC(=O)OCc1ccccc1 = 0.0038 min⁻¹
2) CC(C)C[C@H](NC(=O)OCc1ccccc1)C(=O)N[C@H](/C=C/C#N)CCc1ccccc1 = 0.001 min⁻¹
3) COC(=O)/C=C/[C@H](CCc1ccccc1)NC(=O)[C@H](Cc1ccccc1)NC(=O)OCc1ccc([N+](=O)[O-])cc1 = 0.0012 min⁻¹

Hi there! I need Kinact for each item below, if you can.
1. CC(C)C[C@H](NC(=O)OCc1ccc([N+](=O)[O-])cc1)C(=O)N[C@H](/C=C/S(=O)(=O)c1ccccc1)CCc1ccccc1
2. N#C/C=C/[C@H](CCc1ccccc1)NC(=O)[C@H](Cc1ccccc1)NC(=O)OCc1ccc([N+](=O)[O-])cc1
3. CC(=O)/C=C/[C@H](CCc1ccccc1)NC(=O)[C@H](Cc1ccccc1)NC(=O)OCc1ccc([N+](=O)[O-])cc1
4. CC(=O)/C=C/[C@H](CCc1ccccc1)NC(=O)[C@H](CC(C)C)NC(=O)OCc1ccccc1
5. CC(C)C[C@H](NC(=O)OCc1ccccc1)C(=O)N[C@H](/C=C/S(=O)(=O)c1ccccc1)CCc1ccccc1

### Response
1: 0.0043 min⁻¹; 2: 0.0004 min⁻¹; 3: 0.0017 min⁻¹; 4: 0.0016 min⁻¹; 5: 0.0028 min⁻¹
